Reference for the values: ChEMBL document CHEMBL1201862

test: blockers of HIV-1 ZM109 envelope-driven cell-cell fusion – HeLa effector, CEM target cells, luciferase, cherry-pick, dose response (AID 652058); type: functional, cell-based;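 further: luciferase signal from HIV-1 Env mediated cell-cell fusion of effector and target cells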
Active and inactive are the calls of the source. How the calls were made is not given here.
Measured AC50, listed per entry.

- Mol smiles: "Cn1c(=O)n(-c2cccc(Cl)c2)c(=O)c2c3c(sc21)COC(C)(C)C3"
  AC50: "3.36 µM (active)"
- Mol smiles: "Cc1oc(-c2ccccc2F)nc1CN1CCC(C(=O)NCCC2=CCCCC2)CC1"
  AC50: "4.91 µM (active)"
- Mol smiles: "CC[C@]1(C(=O)OC)[C@H]2C(=O)N(Cc3ccccc3)C(=O)[C@H]2[C@H]2CN=C(SCc3ccc(C#N)cc3)N21"
  AC50: "1.07 µM (active)"
- Mol smiles: "Cc1nc2c(o1)C(=O)c1ccccc1C2=Nc1ccccc1"
  AC50: "3.45 µM (active)"
- Mol smiles: "Cc1cc(Oc2ccc(C#N)cc2)nc(NCc2ccccc2)n1"
  AC50: "5.62 µM (active)"
